# Test system: panel of 140 standard cancer cell lines
# Assay details: ProliFiler-140 cancer cell line screen (CellTiterGlo, 72 h)
# Format: cell-based
# Setup conditions: Homo sapiens, SK-OV-3, read-out: IC50 [M] (ProliFiler-140), SK-OV3 (Ovary)
Assay readout: IC50

Compound	Assay readout	Assay value
COc1cc2cc(C(=O)N3C[C@@H](CCl)c4c3cc(OC(=O)N3CCN(C(=O)CCC(=O)N5CCN(C)CC5)[C@H]5CSSC[C@H]53)c3ccccc43)[nH]c2c(OC)c1OC [P-SS66C-CBI-TMI]	IC50	3.72e-08 M

====

# Tested on: HeLa-HRE cells
# Assay details: Resazurin cytotoxicity assay, HeLa-HRE, 48 h
# Setup conditions: ratio HeLa vs A549
Catalogue of IC50(HeLa)/IC50(A549) readings, one per entry.
Assay readout: IC50(HeLa)/IC50(A549)

> print(dat)
                                   compound  assay.value
1  O=C(c1cc2cc(OCCCN3CCC3)ccc2[nH]1)N1C[C@@H](CCl)c2c1cc(OCc1ccccc1)c1ccccc21          1.8
2  COC(=O)Oc1cc2c(c3ccccc13)[C@H](CCl)CN2C(=O)c1cc2cc(OC)c(OC)c(OC)c2[nH]1          1.5
3  O=C(c1cc2cc(OCCCN3CCC3)ccc2[nH]1)N1CC(CCl)c2c1cc(OC(=O)N1CCCC3COCC31)c1ccccc21 (mixture of isomers)          1.1
4  CN(C(=O)Oc1cc2c(c3ccccc13)[C@H](CCl)CN2C(=O)c1cc2cc(OCCCN3CCC3)ccc2[nH]1)[C@H]1CCSSC1          0.8
